Assay: inhibitors of TNFa-induced NFkB p65 translocation, primary screen, imaging, HUVEC, MLSMR starter and 10KST1 sets (AID 438);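 note: compound added about 3h40 before a 20 min TNFalpha stimulation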
Conditions: HUVEC TNFa-induced p65 nuclear translocation; measured here: nuclei count (cytotoxicity indicator), at 2.08 µM

compound	cell count
CN(C)S(=O)(=O)c1ccc(S(=O)(=O)Nc2ccc3c(c2)oc2ccccc23)cc1	414
Cc1nc(NCCNC(=O)c2ccco2)c2c(C)c(C)sc2n1	803
O=C(CCCCCn1c(=O)[nH]c2ccsc2c1=O)N1CCCCC1	306
C=C(C)CSc1nnc(-c2cccc(S(=O)(=O)N(C)C)c2)n1-c1cc(OC)ccc1OC	712
CCOc1ccc(-n2c(C)nc3c(cnn3-c3ccc(Cl)cc3)c2=O)cc1	238
CCOC(=O)C1CCCN(C(=O)CNS(=O)(=O)c2ccc(Br)s2)C1 (stereo unspecified)	232
Cc1nnc(NC2CCCCC2)[nH]c1=O	358
Cc1nc(SCC#N)c2c(C)c(C)sc2n1	818
O=C(NC1CCCCC1)C1CC(O)CN1C(=O)OCc1ccccc1 (stereo unspecified)	819
COc1cc(OC)cc(-c2nc3nc(C)c(CCC(=O)O)c(C)n3n2)c1	681
CCN(CC)c1ccc(CNc2ccc(Br)cn2)cc1	388

====

Entries and their measured nuclei count follow.
Assay: reduction of polyQ htt aggregates in cells – imaging, exon1htt(103Q)mCFP cells, high-content imaging, primary screen (AID 483);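 note: compound exposure lasted 3 days before fixation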;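 for nuclei count: percent of the per-plate median nuclei count of sample wells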
Conditions: exon1htt(103Q)mCFP cell line, aggregate imaging, at 2 µM; measured here: cell count, toxicity
measurement type: nuclei count

compound	reading
CCCCNC(=O)OC(C)CNC(=O)Oc1cccc(C)c1 (centres undefined)	92.7%
CS(=O)(=O)c1ncc(Cl)c(C(=O)Nc2ccc(N3CCOCC3)cc2)n1	112%
O=S(=O)(CCOc1ccccc1)c1nc2ccccc2[nH]1	99.9%
Cc1cc2ncn(N)c2cc1C	108%
COc1ccccc1-c1c(C)nn2c(N3CCC4(CC3)OCCO4)cc(C)nc12	91.2%
CC1(C)CC(=O)C(C=NCCO)=C(O)C1	23.4%
CCCC(O)(CCN(C)C)c1ccc(OC)cc1 (centres undefined)	95.2%
Cc1cc(NC(=O)CSc2ccc(Cl)cc2)no1	94.2%
COCCNC(=O)Cn1nc(C(F)(F)F)c(Br)c1C	65.4%
CN(C(=O)c1ccncc1)C1CC(C)(C)N(O)C(C)(C)C1	103%
CCOc1ccc(C(=O)N(CN2CCCC2=O)c2ccc(C)cc2)cc1	118%
Nc1nc(C2C(=O)CCCC2=O)cs1	103%
COc1cc(NC(=O)c2cc(OC)c(OC)c(OC)c2)c(OC)cc1NC(=O)CN1CCCCC1	115%
CN(c1ccccc1)S(=O)(=O)c1cc(C(=O)N2CCN(c3ccccn3)CC2)ccc1Cl	134%
Cc1c(C(=O)O)oc2ccc(S(=O)(=O)NCCC3=CCCCC3)cc12	88%
CCCCc1ccc(NC(=O)N[C@H](C(=O)O)C(C)CC)cc1 (some centres undefined)	109%
CC(=O)N1CCc2cc(S(=O)(=O)NC(CC(C)C)C(=O)N3CCn4c3nc3ccccc34)ccc21 (centres undefined)	104%
CCS(=O)(=O)N1CCC(C(=O)NCc2cccs2)CC1	77.5%
Cc1ccc(S(=O)(=O)n2nc(OC(=O)c3ccco3)cc2N)cc1	115%
Cc1ccccc1NC(=O)c1c(F)c(F)c(F)c(F)c1F	98.6%
Cn1ccnc1C(O)c1ccco1 (centres undefined)	97.2%
COc1ccc(C(CNC(=O)CN2C(=O)NC3(CC(C)CC(C)(C)C3)C2=O)N2CCOCC2)cc1 (centres undefined)	97.7%
CC(=O)Nc1cccc(-c2nnc(-c3ccccc3)o2)c1	105%
CS(=O)(=O)N(CC(=O)NCc1ccccn1)c1ccc2c(c1)OCCO2	101%

====

Entries and their measured nuclei count follow.
Experiment: endothelial E-selectin expression blockers – imaging, HUVEC, immunofluorescence, MLSMR starter and 10KST1 sets, primary screen (AID 487);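 for nuclei count: 100% = median nuclei count of all wells on the same plate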
Details: HUVEC TNFalpha-induced E-selectin immunofluorescence imaging, at 2 µM; measured here: cell number, toxicity

compound	nuclei count [%]
CCOC(=O)c1cnc(-n2nc(C)cc2C)nc1Nc1cccc(C(C)=O)c1	111
O=C(NC1CCCC1)c1cc(-c2cccs2)on1	105
O=C(NCCN1CCN(c2ccccc2)CC1)c1ccc(NC(=O)C2CCCO2)cc1 (stereo unspecified)	114
CCCCN(C)Cc1c(C)[nH]c2c(Cl)cccc2c1=O	92.3
O=C(c1ccc2c(c1)OCO2)N1CCNc2ccccc2C1	85.2
Cc1nc2ccccc2c(=O)n1NC(=O)c1ccc(F)cc1Cl	70.3
CN1CCN(C(=O)CN(Cc2ccc(Cl)cc2)S(C)(=O)=O)CC1	110
NC(=O)c1c(NC(=O)CSc2nnc(-c3ccco3)n2-c2ccccc2)sc2c1CCC2	132
O=C(Nc1ncnc2sc3c(c12)CCCCC3)c1ccco1	65.2
COc1cc(-c2c(C#N)c(N)nc3c2CCCC3)cc(OC)c1OC	121
O=C(NCc1ccc(F)cc1)c1cc(-c2ccco2)on1	102

====

Experiment: reduction of polyQ htt aggregates in cells – imaging, exon1htt(103Q)mCFP cells, high-content imaging, primary screen (AID 483);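 note: compound exposure lasted 3 days before fixation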
Conditions: exon1htt(103Q)mCFP cell line, aggregate imaging, at 2 µM; stronger effect = higher value
Entries and their measured inhibition of aggregation follow.

molecule	unit of measure	inhibition of aggregation
CCCCn1nnnc1SCC(=O)Nc1cccc(C)n1	%	9
N#CC(C(=O)CCN1C(=O)C2CC=CCC2C1=O)c1nc2ccccc2[nH]1 (stereo unspecified)	%	4.5
COc1cc2nc(N3CCN(C(=O)C4COc5ccccc5O4)CC3)nc(N)c2cc1OC (stereo unspecified)	%	-4.2
Cc1cccc(C)c1OCC(=O)Nc1cccc(NC(=O)c2ccco2)c1	%	23.3
COc1ccc(-c2n[nH]c(C)c2-c2ccc(Cl)cc2)c(O)c1OC	%	-24.2
COc1ccc(N2CCN(C(=O)CSc3ccccc3N)CC2)cc1	%	7.8
Cn1c(NCc2cccc(Br)c2)nc2ccccc21	%	3
O=C(O)c1ccccc1C(=O)Nc1ccccc1	%	-8.6
COc1cccc(C(=O)Nc2cnc(NC(=O)c3ccco3)cc2C)c1	%	-2.9
COC(=O)C(C)Oc1ccc2c3c(c(=O)oc2c1)CCCCC3 (stereo unspecified)	%	-24.4
Cc1cc(S(=O)(=O)NC2CCCCC2)ccc1OCC(=O)NCc1ccccn1	%	7.8

====

Experiment: reduction of polyQ htt aggregates in cells – imaging, exon1htt(103Q)mCFP cells, high-content imaging, primary screen (AID 483);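 note: compound exposure lasted 3 days before fixation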
Conditions: exon1htt(103Q)mCFP cell line, aggregate imaging, at 2 µM; stronger effect = higher value
Entries and their measured inhibition of aggregation follow.
measurement type: inhibition of aggregation (%)

compound	reading
O=C(CSc1nc2ccccc2n1CC(=O)N1CCCC1)Nc1nccs1	-9.6
CSc1cccc(NC(=O)C2CCN(S(C)(=O)=O)CC2)c1	16.4
O=C(Nc1ccc(S(=O)(=O)NC2CCCC2)cc1)c1cnccn1	0.6
Cc1cc(-c2nc3ncccc3o2)ccc1N	23.3
Cc1ccc(NCc2nnc(SCC(=O)NCc3ccco3)n2CC2CCCO2)cc1Cl (stereo not given)	13.3
CCc1ccc(NS(=O)(=O)c2ccc3[nH]cc(C(=O)N4CCCCC4)c(=O)c3c2)cc1	14.2
COC(=O)c1sc(NC(=O)COc2ccccc2OC)nc1C	-9.7
CCCn1c(=O)c2ccccc2n2c(SCc3cc(=O)n4ccsc4n3)nnc12	-7
Cc1cncn1CCc1nc2c3ccccc3nc(=S)n2[nH]1	4.4
COc1cccc(C(=O)CSc2nnc(COc3cccc4cccnc34)o2)c1	-10.3
Cc1occc1C(=O)Nc1cccnc1	-33.6
O=C(c1ccc(Cl)c(Cl)c1)N1CCOCC1	-0.3
CC(=O)Nc1ccc(NC2=CC(=O)CC(C)(C)C2)cc1	14
CC(=O)[C@@]1(O)CC[C@H]2[C@@H]3C[C@H](C)C4=CC(=O)C=C[C@]4(C)[C@@]3(F)[C@@H](O)C[C@@]21C	10.8
COC(=O)c1cc(Br)c(=O)n(CCC2=CCCCC2)c1	-16.7
COc1ccccc1CN1CC(C(=O)N2CCN(c3ccc(F)cc3)CC2)CC1=O (stereo not given)	-14.7
Nc1nc(-c2ccc(Cl)cc2)cc(C(F)(F)F)n1	4.9
O=C(O)C1CSC2c3ccccc3C(=O)N12 (stereo not given)	-3.2
O=C(c1noc2c1CCc1ccccc1-2)N1CCOCC1	18.9
COCCn1c(=O)[nH]c2cc(C(=O)NCc3cccnc3)ccc2c1=O	7.4

====

Entries and their measured inhibition follow.
Assay: endothelial E-selectin expression blockers – imaging, HUVEC, immunofluorescence, MLSMR starter and 10KST1 sets, primary screen (AID 487);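 for inhibition: signal is fraction of cell area covered by stained E-selectin grains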
Settings: HUVEC TNFalpha-induced E-selectin immunofluorescence imaging, at 2 µM; stronger effect = higher value
measurement type: inhibition (%)

molecule	unit of measure	reading
CCOC(=O)C1CCN(c2c(NCCCN(CC)c3ccccc3)c(=O)c2=O)CC1	%	-20.2
CC(=O)Nc1ccc(S(=O)(=O)n2cnc(C)c2)cc1	%	-26.8
CCCCc1oc2ccccc2c1C(=O)c1cc(I)c(OCCN(CC)CC)c(I)c1	%	-235
CN(CC(=O)Nc1ccccc1Cl)C(=O)COC(=O)CNC(=O)c1ccc(Br)o1	%	-13.8
COC(=O)CN1C(=O)C2(C(C#N)=C(N)Oc3c2c(C)nn3-c2ccccc2)c2ccccc21 (stereo not drawn)	%	18.6
CCn1c(=O)cc(SCC(=O)Nc2cccnc2)c2ccccc21	%	-15.9
Cc1cc(C)n2nc3nc(N4CCCCC4)nc(-c4ccco4)c3c2n1	%	-260
N[C@@H](Cc1cc(I)c(Oc2ccc(O)c(I)c2)c(I)c1)C(=O)O	%	-50.6
CCOC(=O)N1CCC(O)(c2cc(C)c(C)cc2C)CC1	%	-16
CCOC(=O)N1CCC(N(C(=O)Nc2ccc(Cl)c(Cl)c2)C(C)CC)CC1 (stereo not drawn)	%	-44
O=C(Oc1oc(-c2ccco2)nc1C=Nc1ccccc1)c1ccoc1	%	-72
CC(=O)Oc1cccc(/C=c2\sc3nc(-c4ccco4)nn3c2=O)c1	%	-69.5
COc1ccccc1C(=O)NCCc1nc2ccccc2n1C	%	15.5
Cc1cc(=O)[nH]c2c1cnn2Cc1ccccc1	%	-37.7
O=c1[nH]c2ccccc2n1CCCN1CCN(C(c2ccccc2)c2ccccc2)CC1	%	-139
COc1ccccc1-n1c(C)nnc1SCC(N)=O	%	-49.7
O=C(O)C1C2CCC(O2)C1C(=O)Nc1cccc(F)c1 (stereo not drawn)	%	-56.8
Cc1ccc(C)c(NC(=O)C2CCC(C)(C(=O)O)C2(C)C)c1 (stereo not drawn)	%	-105
Cc1ccc(C(=O)C2COC(=O)C2)cc1 (stereo not drawn)	%	-31.2
Fc1ccccc1-c1nc(-c2ccccc2)no1	%	-5.4
CCOC(=O)c1cc2c(=O)n3cccc(C)c3nc2n(CCc2ccccc2)c1=N	%	-145
COc1ccc(Cc2nc3ccc(S(N)(=O)=O)cc3[nH]2)cc1OC	%	75.1
Nc1c(Sc2ccccc2)c(=O)[nH]c(=O)n1Cc1ccccc1	%	-3.2

From: PubChem BioAssay
